target_under_test: Equine serum BChE (butyrylcholinesterase) (Equus caballus)
Construct: commercial native enzyme from horse serum (Sigma); docking used human BChE 1P0P, not the assayed protein
experiment_description: DTNB (Ellman-type) spectrophotometric assay, […] nm
Assay type: biochemical
recorded_conditions: read-out: Mean ± SEM^ a [ μ M]
property_label: IC50 (µM)
Report as a plain number; the unit µM is understood.

Req: Item C[C@]12CCC(=O)C=C1CC[C@@H]1[C@@H]2[C@H](O)C[C@]2(C)C(=O)CC[C@@H]12 [compound 6, 11α-Hydroxyandrost-4-en-3,17-dione] has what recorded IC50?
Resp: 20.5

---

target_under_test: Equine serum BChE (butyrylcholinesterase) (Equus caballus, UniProt P81908)
Construct: commercial native enzyme from horse serum (Sigma); docking used human BChE 1P0P, not the assayed protein
Sequence (P81908 whole entry): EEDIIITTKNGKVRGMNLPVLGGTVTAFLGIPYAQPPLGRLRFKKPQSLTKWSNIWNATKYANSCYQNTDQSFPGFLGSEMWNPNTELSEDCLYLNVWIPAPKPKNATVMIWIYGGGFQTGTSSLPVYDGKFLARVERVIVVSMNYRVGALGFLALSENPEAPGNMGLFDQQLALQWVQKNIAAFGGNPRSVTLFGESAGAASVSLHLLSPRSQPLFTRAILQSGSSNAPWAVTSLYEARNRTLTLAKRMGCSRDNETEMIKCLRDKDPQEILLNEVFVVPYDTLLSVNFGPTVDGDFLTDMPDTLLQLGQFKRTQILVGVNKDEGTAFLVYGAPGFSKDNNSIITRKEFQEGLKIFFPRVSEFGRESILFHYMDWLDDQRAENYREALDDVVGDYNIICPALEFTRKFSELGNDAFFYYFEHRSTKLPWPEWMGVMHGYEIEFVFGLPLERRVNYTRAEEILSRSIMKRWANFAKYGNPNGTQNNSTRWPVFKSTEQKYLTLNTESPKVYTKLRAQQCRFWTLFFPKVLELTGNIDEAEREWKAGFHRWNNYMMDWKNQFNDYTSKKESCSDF
experiment_description: DTNB (Ellman-type) spectrophotometric assay, […] nm
Type: biochemical
property_label: pIC50
Please treat pIC50 as minus the base-10 logarithm of the molar concentration.

Req: Item C[C@]12C=CC(=O)C=C1CC[C@@H]1[C@@H]2CC[C@]2(C)C(=O)CC[C@@H]12 [compound 5, Androst-1,4-dien-3,17-dione] has what recorded pIC50?
Resp: 4.93
